- method.notes: NCI Yeast Anticancer Drug Screen. Data for the mlh1 strain (AID 171);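 further: 0% = growth of vehicle-treated control cultures of the same strain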
- condition.context: S. cerevisiae mlh1 strain growth inhibition; at 33.0 µM
The panel holds about 79,000 compounds, 15% with a hit somewhere; the sample as a whole holds those more often. Active and inactive are the calls of the source. No stated cut-off is given here; in the data, active means growth inhibition above about 70%; inactive means the rest.
Valid outcomes are listed here; reply with one: 1.0 for active, 0.0 for inactive

Query :: Per the assay record, what outcome was assigned to "CCOC(=O)C(C(=O)OCC)=P(c1ccccc1)(c1ccccc1)c1ccccc1" ?
Result :: 0.0

Query :: Per the assay record, what outcome was assigned to "O=[N+]([O-])c1cccc2nc3ccccc3c(NCCC[N+]3([O-])CCCCC3)c12" ?
Result :: 0.0

Query :: Per the assay record, what outcome was assigned to "CCOC1(c2cccc([N+](=O)[O-])c2)c2ccccc2Oc2ccccc21" ?
Result :: 0.0

Query :: Per the assay record, what outcome was assigned to CCCCCCCCCCCC(O)S(=O)(=O)O (configuration not stated) ?
Result :: 0.0

Query :: Per the assay record, what outcome was assigned to CCCOC(=O)C(F)C(Br)C(=O)OCCC (configuration not stated) ?
Result :: 1.0

Query :: Per the assay record, what outcome was assigned to "NC(N)=NS(=O)(=O)c1ccc(Nc2c3ccccc3nc3c(C(=O)NCCO)cccc23)cc1" ?
Result :: 0.0

Query :: Per the assay record, what outcome was assigned to "c1ccc2c(c1)sc1c3cnccc3ccc21" ?
Result :: 0.0

Query :: Per the assay record, what outcome was assigned to "Cc1ccc(N=Nc2ccc(O)c(=O)cc2)cc1" ?
Result :: 1.0

Query :: Per the assay record, what outcome was assigned to "CC(C)(C)CC(C)(C)c1cc(O)c(O)c(CN2CCCCC2)c1" ?
Result :: 0.0

Query :: Per the assay record, what outcome was assigned to Cc1ccc(CC2(OCCN(C)C)CCC(C(C)(C)C)CC2)cc1 (configuration not stated) ?
Result :: 1.0

Query :: Per the assay record, what outcome was assigned to CCCCN(CCCC)CCC(O)c1cc2c(Cl)cc(Cl)cc2c2cc(C(F)(F)F)ccc12 (configuration not stated) ?
Result :: 1.0

Query :: Per the assay record, what outcome was assigned to "Cc1cc2cc3cc(C)c(N)cc3nc2cc1N" ?
Result :: 1.0

Query :: Per the assay record, what outcome was assigned to "Cc1cccc2c1nc1ccc(Cl)cc1[n+]2C" ?
Result :: 1.0

Query :: Per the assay record, what outcome was assigned to "O/N=C\c1c(O)ccc2ccccc12" ?
Result :: 0.0

Query :: Per the assay record, what outcome was assigned to "O=P(NC1CCCCC1)(OCc1ccccc1)OCc1ccccc1" ?
Result :: 0.0

Query :: Per the assay record, what outcome was assigned to N=C1N=Nc2nc(C3(c4nc5n(c4O)C(=N)N=N5)Cc4ccccc4C3=O)c(O)n21 (configuration not stated) ?
Result :: 0.0

Query :: Per the assay record, what outcome was assigned to "O=C(NCCCl)Sc1ccc(Cl)cc1" ?
Result :: 0.0

Query :: Per the assay record, what outcome was assigned to COC(=O)CC1CCc2c(ccc3ccccc23)C1(C)C(=O)OC (configuration not stated) ?
Result :: 0.0

Query :: Per the assay record, what outcome was assigned to "CCN(CC)CCNc1ccc([N+](=O)[O-])c2nc3ccccc3c(N)c12" ?
Result :: 0.0

Query :: Per the assay record, what outcome was assigned to "CCCC/C([O-])=C1/C(=O)N(c2ccccc2)N=C1C.CCCC/C([O-])=C1/C(=O)N(c2ccccc2)N=C1C.[Cu+2]" ?
Result :: 0.0

Query :: Per the assay record, what outcome was assigned to "COc1ccc([N+](=O)[O-])c2c(NCCCN(C)C)c3ccccc3nc12" ?
Result :: 0.0

Query :: Per the assay record, what outcome was assigned to "O=C(Nc1ccc(Cl)cc1)Nc1nnc2nc(C(C(=O)c3cccc([N+](=O)[O-])c3Cl)c3nc4nnc(NC(=O)Nc5ccc(Cl)cc5)n4[nH]c3=O)c(=O)[nH]n12" ?
Result :: 0.0

Query :: Per the assay record, what outcome was assigned to CCc1ccc2c(c1)N(CC(C)CN(C)C)c1ccccc1S2 (configuration not stated) ?
Result :: 0.0

Query :: Per the assay record, what outcome was assigned to "Cc1cc(C(C)(C)C)c(OCCCN2CCOCC2)c(C(C)(C)C)c1" ?
Result :: 0.0

Query :: Per the assay record, what outcome was assigned to O=C(O)C1CC(c2ccccc2)=NN1c1ccccc1 (configuration not stated) ?
Result :: 0.0

Query :: Per the assay record, what outcome was assigned to "CCN(CC)Cc1cc(Nc2c3ccccc3nc3c2[nH]c2ccccc23)cc(CN(CC)CC)c1O" ?
Result :: 0.0

Query :: Per the assay record, what outcome was assigned to COc1ccc(NC(=O)CC2SC(=Nc3ccccc3C)NC2=O)c([N+](=O)[O-])c1 (configuration not stated) ?
Result :: 0.0

Query :: Per the assay record, what outcome was assigned to CCOC(=O)C1=C(C)NC(C)=C(C(=O)OCCNC(=O)c2ccc(N=[N+]=[N-])cc2)C1c1ccccc1C(F)(F)F (configuration not stated) ?
Result :: 0.0

Query :: Per the assay record, what outcome was assigned to COC(=O)NC1C(C)OC(OC2C/C=C(/C)C3C=CC4C(OC5CC(OC6CC(O)C(OC7CC(O)C(OC)C(C)O7)C(C)O6)C(O)C(C)O5)C(C)CC(C)C4C3(C)/C(O)=C3\C(=O)OC4(CC(C)C(CO)=CC4/C=C\2C)C3=O)CC1(C)[N+](=O)[O-] (configuration not stated) ?
Result :: 0.0

Query :: Per the assay record, what outcome was assigned to "CCCCCCOC(=O)NCCOC(=O)Nc1ccccc1" ?
Result :: 0.0

Query :: Per the assay record, what outcome was assigned to Cc1ccc(NC(=O)/C(CC2N=c3c(ccc4c(O)c5ccccc5c(O)c34)=NC2O)=N/NC(C)(C)C)cc1 (configuration not stated) ?
Result :: 0.0

Query :: Per the assay record, what outcome was assigned to COC(=O)CCC(NC(=S)N/N=C(\C)c1ccccn1)C(=O)OC (configuration not stated) ?
Result :: 0.0

Query :: Per the assay record, what outcome was assigned to "Oc1ccc(O)c(Cc2ccccc2)c1" ?
Result :: 1.0

Query :: Per the assay record, what outcome was assigned to "O=C(O)Cc1cc(F)ccc1C(=O)O" ?
Result :: 0.0

Query :: Per the assay record, what outcome was assigned to CCCCC(CC)C(=O)[O][Sn]([CH2]CCC)([CH2]CCC)[O]C(=O)C(CC)CCCC (configuration not stated) ?
Result :: 1.0

Query :: Per the assay record, what outcome was assigned to "CN(C)CCNC(=O)c1cccc2c1Oc1c(cccc1[N+](=O)[O-])O2" ?
Result :: 0.0

Query :: Per the assay record, what outcome was assigned to "COc1cc(O)c2c(c1O)C(=O)c1cc(C)ncc1C2=O" ?
Result :: 0.0

Query :: Per the assay record, what outcome was assigned to C=C1CCC(O)C/C1=C/C=C1\CCCC2(C)C1CCC2C(C)CCCC(C)C (configuration not stated) ?
Result :: 0.0

Query :: Per the assay record, what outcome was assigned to "Cc1cc(S(=O)(=O)Nc2nnc3cnc4ccccc4n23)c(S)cc1Cl" ?
Result :: 0.0

Query :: Per the assay record, what outcome was assigned to "O=[N+]([O-])c1cc(F)c(F)cc1Sc1cc(F)c(F)cc1[N+](=O)[O-]" ?
Result :: 1.0

Query :: Per the assay record, what outcome was assigned to "CCCCCCCCCCCC1=NCCO1" ?
Result :: 0.0

Query :: Per the assay record, what outcome was assigned to "Cc1ccc(NCCNCCO)c2c(=O)c3cc(O)ccc3sc12" ?
Result :: 0.0
